Entry source: patent US9108921B2

Target: UniProt P30613
Experiment: PKR WT enzymatic AC50 assay
Assay type: biochemical
Details: wild type PKR
Value type: AC50

[[record]]
molecule = "O=C(c1ccc(NS(=O)(=O)c2cccc(Cl)c2Cl)cc1)N1CCC(O)(Cc2ccccc2)CC1 [Compound 237]"
value_type = "AC50"
result = "0.101 to 1 µM"

[[record]]
molecule = "N#Cc1cc(NS(=O)(=O)c2cccc3cccnc23)ccc1C(=O)N1CCC(O)(c2ccccc2)CC1 [Compound 261]"
value_type = "AC50"
result = "0.101 to 1 µM"

[[record]]
molecule = "O=C(c1ccc(NS(=O)(=O)Cc2ccccn2)cc1)N1CCC(O)(c2ccccc2Cl)CC1 [Compound 322]"
value_type = "AC50"
result = "> 10 µM"

[[record]]
molecule = "O=C(c1ccc(NS(=O)(=O)c2cccc3cccnc23)cc1)N1CCC(O)(Cc2cccnc2F)CC1 [Compound 168]"
value_type = "AC50"
result = "< 0.1 µM"

[[record]]
molecule = "CC(C)CC1(O)CCN(C(=O)c2ccc(NS(=O)(=O)c3ccc(F)c4scnc34)cc2)CC1 [Compound 240]"
value_type = "AC50"
result = "0.101 to 1 µM"

[[record]]
molecule = "O=C(c1ccc(NS(=O)(=O)c2cccc3cccnc23)cc1)N1CCC(O)(c2ccnc(F)c2)CC1 [Compound 247]"
value_type = "AC50"
result = "0.101 to 1 µM"


// moving on: another record for AC50
Recorded result, Nc1c(O)cccc1S(=O)(=O)Nc1ccc(C(=O)N2CCC(O)(c3ccccc3Cl)CC2)cc1 [Compound 382] , AC50: < 0.1 µM

---

Reported values of AC50 for individual entries
Biological target: PKR R532W (Homo sapiens, UniProt P30613, R532W)
Sequence (P30613 whole entry R532W): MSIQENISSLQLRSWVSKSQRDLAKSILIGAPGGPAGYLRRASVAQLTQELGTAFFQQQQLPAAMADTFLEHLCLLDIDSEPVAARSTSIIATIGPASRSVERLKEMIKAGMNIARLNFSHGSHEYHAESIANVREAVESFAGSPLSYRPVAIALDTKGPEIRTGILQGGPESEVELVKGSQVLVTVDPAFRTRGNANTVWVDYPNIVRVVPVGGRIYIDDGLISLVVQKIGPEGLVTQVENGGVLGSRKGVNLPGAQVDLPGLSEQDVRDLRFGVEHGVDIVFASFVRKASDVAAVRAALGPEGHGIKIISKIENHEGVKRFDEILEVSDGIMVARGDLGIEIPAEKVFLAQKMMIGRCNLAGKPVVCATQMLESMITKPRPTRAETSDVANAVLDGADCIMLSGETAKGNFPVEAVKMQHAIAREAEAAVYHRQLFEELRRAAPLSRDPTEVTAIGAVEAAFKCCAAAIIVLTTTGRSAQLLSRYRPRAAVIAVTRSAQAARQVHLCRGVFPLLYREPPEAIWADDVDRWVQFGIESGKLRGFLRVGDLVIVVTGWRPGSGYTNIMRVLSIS
Assay: PKR Mutant Assay, AC50 against PKR R532W
Format: biochemical
Conditions: mutant PKR R532W enzyme

[[record]]
structure_as_smiles = "Cc1nc2c(S(=O)(=O)Nc3ccc(C(=O)N4CCC(O)(CC(C)C)CC4)cc3)cccc2o1"
value_type = "AC50"
result = "101 to 1000 nM"

[[record]]
structure_as_smiles = "COCCC1(O)CCN(C(=O)c2ccc(NS(=O)(=O)c3cccc4cccnc34)cc2)CC1"
value_type = "AC50"
result = "101 to 1000 nM"

[[record]]
structure_as_smiles = "O=C(c1ccc(NS(=O)(=O)c2cccc3cccnc23)cc1)N1CCC(O)(Cc2cccc(F)n2)CC1"
value_type = "AC50"
result = "< 100 nM"


Form field AC50, entry Cc1cccnc1C1(O)CCN(C(=O)c2ccc(NS(=O)(=O)c3cccc4cccnc34)cc2)CC1 : < 100 nM

For record O=C(c1ccc(NS(=O)(=O)c2ccccc2C(F)(F)F)cc1)N1CCC(O)(Cc2ccccc2)CC1 the listed AC50 is 1010 to 10000 nM

Just so you know, measured AC50 for O=C(c1ccc(NS(=O)(=O)c2cccc3cccnc23)cc1)N1CCC(O)(c2ccncc2Cl)CC1 came out at < 100 nM

In plain terms, CN(C)CC1(O)CCN(C(=O)c2ccc(NS(=O)(=O)c3cccc4cccnc34)cc2)CC1 has a documented AC50 of 1010 to 10000 nM

---

Molecular target: PKR WT (Homo sapiens, UniProt P30613)
Sequence (P30613 whole entry): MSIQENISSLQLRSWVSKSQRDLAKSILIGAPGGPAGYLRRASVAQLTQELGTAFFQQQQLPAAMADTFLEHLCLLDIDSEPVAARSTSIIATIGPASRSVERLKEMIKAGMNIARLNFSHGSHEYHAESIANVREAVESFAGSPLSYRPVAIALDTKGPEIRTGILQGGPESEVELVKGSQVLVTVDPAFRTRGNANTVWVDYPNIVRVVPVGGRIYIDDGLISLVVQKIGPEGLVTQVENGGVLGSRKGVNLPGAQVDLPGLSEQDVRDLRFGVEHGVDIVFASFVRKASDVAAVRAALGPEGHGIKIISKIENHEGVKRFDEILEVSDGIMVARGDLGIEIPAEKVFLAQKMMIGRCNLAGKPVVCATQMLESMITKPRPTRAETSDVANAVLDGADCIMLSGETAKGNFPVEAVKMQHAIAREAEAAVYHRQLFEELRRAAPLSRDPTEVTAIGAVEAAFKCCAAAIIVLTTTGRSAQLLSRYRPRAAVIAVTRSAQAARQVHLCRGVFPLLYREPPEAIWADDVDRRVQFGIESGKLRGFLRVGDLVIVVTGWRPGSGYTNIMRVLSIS
Assay: PKR WT enzymatic AC50 assay
Assay type: biochemical
Conditions: wild type PKR
Value type: AC50

Answered cases to consult:
[[record]]
structure_as_smiles = "O=C(c1ccc(NS(=O)(=O)c2cccc3cccnc23)cc1)N1CCC(O)(/C=C/C(F)F)CC1"
test_target = "PKR WT (Homo sapiens, UniProt P30613)"
result = "< 100 nM"

[[record]]
structure_as_smiles = "Cc1cccc(CC2(O)CCN(C(=O)c3ccc(NS(=O)(=O)c4cccc5cccnc45)cc3)CC2)n1"
test_target = "PKR WT (Homo sapiens, UniProt P30613)"
result = "< 100 nM"

[[record]]
structure_as_smiles = "O=C(c1ccc(NS(=O)(=O)c2cccc3ccnnc23)cc1)N1CCC(O)(c2ccccc2Cl)CC1"
test_target = "PKR WT (Homo sapiens, UniProt P30613)"
result = "1010 to 10000 nM"


According to the records, this molecule CNc1nc2c(S(=O)(=O)Nc3ccc(C(=O)N4CCC(O)(CC(C)C)CC4)cc3)cc(Cl)cc2s1 displays AC50 of < 100 nM

---

Target: PKR WT (Homo sapiens)
Assay: PKR WT cell based AC50 assay
Conditions: wild type PKR
Reported AC50 values are given for each entry in this list.

# example entries with known answers
[[record]]
molecule = "O=C(c1ccc(NS(=O)(=O)c2cccc3cccnc23)cc1)N1CCC(O)(Cc2ccccn2)CC1 [Compound 189]"
test_target = "PKR WT (Homo sapiens)"
value_type = "AC50"
result = "101 to 1000 nM"

[[record]]
molecule = "O=C(c1ccc(NS(=O)(=O)c2cccc3cccnc23)cc1)N1CCC(O)(CC2CC2(F)F)CC1 (stereo not drawn) [Compound 176]"
test_target = "PKR WT (Homo sapiens)"
value_type = "AC50"
result = "< 100 nM"


For CC(C)CC1(O)CCN(C(=O)c2ccc(NS(=O)(=O)c3cccc4c3OCO4)cc2)CC1 [Compound 423] the molecule record lists AC50 as < 100 nM

Entry under test: O=C(c1ccc(NS(=O)(=O)c2cccc3cccnc23)cc1)N1CCC(O)(c2ccncc2Cl)CC1 [Compound 161] . Its AC50 was < 100 nM

---

Biological target: PKR WT (Homo sapiens)
Assay: PKR WT cell based AC50 assay
Conditions: wild type PKR
Value type: AC50

Answered examples (3):
[[record]]
molecule = "COc1ccccc1C1(O)CCN(C(=O)c2ccc(NS(=O)(=O)c3cccc4cccnc34)cc2)CC1 [Compound 184]"
value_type = "AC50"
result = "101 to 1000 nM"

[[record]]
molecule = "O=C(c1ccc(NS(=O)(=O)c2cccc3cccnc23)cc1)N1CCC(O)(Cc2cccnc2F)CC1 [Compound 168]"
value_type = "AC50"
result = "< 100 nM"

[[record]]
molecule = "O=C(c1ccc(NS(=O)(=O)c2cccc3c2OCCC3)cc1)N1CCC(O)(c2ccccc2Cl)CC1 [Compound 102]"
value_type = "AC50"
result = "< 100 nM"


Switching to the query record.
Briefly, AC50 measured for O=C(c1ccc(NS(=O)(=O)c2cccc3cccnc23)cc1)N1CCC(O)(c2ccccc2C(F)F)CC1 [Compound 113] : < 100 nM

---

Target: PKR WT (Homo sapiens, UniProt P30613)
Test: PKR WT enzymatic AC50 assay
Type: biochemical
Details: wild type PKR
Examples of molecules with documented AC50 follow.

Completed entries (count: 5):
[[record]]
structure_as_smiles = "O=C(c1ccc(NS(=O)(=O)c2cc(F)cc3scnc23)cc1)N1CCC(O)(c2ccccc2Cl)CC1"
value_type = "AC50"
result = "< 100 nM"

[[record]]
structure_as_smiles = "O=C(c1ccc(NS(=O)(=O)c2cccc3scnc23)cc1)N1CCC(O)(/C=C/CC(F)(F)F)CC1"
value_type = "AC50"
result = "< 100 nM"

[[record]]
structure_as_smiles = "O=C(c1ccc(NS(=O)(=O)c2cccc3cccnc23)cc1)N1CCC(O)(c2ccccc2)CC1"
value_type = "AC50"
result = "< 100 nM"

[[record]]
structure_as_smiles = "Cn1nccc1CC1(O)CCN(C(=O)c2ccc(NS(=O)(=O)c3cccc4scnc34)cc2)CC1"
value_type = "AC50"
result = "101 to 1000 nM"

[[record]]
structure_as_smiles = "CC(C)(C)CC1(O)CCN(C(=O)c2ccc(NS(=O)(=O)c3cccc4cccnc34)cc2)CC1"
value_type = "AC50"
result = "< 100 nM"


Value of AC50 reported for the molecule O=C(c1ccc(NS(=O)(=O)c2cccc(Cl)c2)cc1)N1CCC(O)(Cc2ccccc2)CC1 is 101 to 1000 nM

The value of AC50 measured for the molecule O=C(c1ccc(NS(=O)(=O)c2cccc3cccnc23)cc1F)N1CCC(O)(c2ccccc2Cl)CC1 turned out to be < 100 nM

Input O=C(c1ccc(NS(=O)(=O)c2cccc3cccnc23)cc1)N1CCC(O)(Cc2ccccc2)CC1 . Output AC50: < 100 nM

// field: AC50; key: Cc1cc(NS(=O)(=O)c2cccc3cccnc23)ccc1C(=O)N1CCC(O)(c2ccccc2Cl)CC1 ; value = < 100 nM

Reported AC50 of Cc1ccccc1CC1(O)CCN(C(=O)c2ccc(NS(=O)(=O)c3cccc4cccnc34)cc2)CC1 : < 100 nM

For CC(C)CC1(O)CCN(C(=O)c2ccc(NS(=O)(=O)c3cccc4nc(N)cnc34)cc2)CC1 the molecule record lists AC50 as < 100 nM

// O=C(c1ccc(NS(=O)(=O)c2cccc3cccnc23)cc1)N1CCC(O)(c2cccc(F)c2F)CC1 : AC50 value = < 100 nM

get_value(item= N#Cc1ccc(C2(O)CCN(C(=O)c3ccc(NS(=O)(=O)c4cccc5cccnc45)cc3)CC2)cc1 , readout=AC50) returns 101 to 1000 nM

AC50 for O=C(c1ccc(NS(=O)(=O)c2cccc3cccnc23)cc1)N1CCC(CO)(Cc2ccccc2)CC1 is < 100 nM

Reported AC50 for CC(F)(F)CCC1(O)CCN(C(=O)c2ccc(NS(=O)(=O)c3cc(F)cc4sc(N)nc34)cc2)CC1 was < 100 nM
